Origin of values: patent US20250223301A1

target: DGKa (Homo sapiens (Human), UniProt P23743); assay: biochemical
Sequence (P23743 whole entry): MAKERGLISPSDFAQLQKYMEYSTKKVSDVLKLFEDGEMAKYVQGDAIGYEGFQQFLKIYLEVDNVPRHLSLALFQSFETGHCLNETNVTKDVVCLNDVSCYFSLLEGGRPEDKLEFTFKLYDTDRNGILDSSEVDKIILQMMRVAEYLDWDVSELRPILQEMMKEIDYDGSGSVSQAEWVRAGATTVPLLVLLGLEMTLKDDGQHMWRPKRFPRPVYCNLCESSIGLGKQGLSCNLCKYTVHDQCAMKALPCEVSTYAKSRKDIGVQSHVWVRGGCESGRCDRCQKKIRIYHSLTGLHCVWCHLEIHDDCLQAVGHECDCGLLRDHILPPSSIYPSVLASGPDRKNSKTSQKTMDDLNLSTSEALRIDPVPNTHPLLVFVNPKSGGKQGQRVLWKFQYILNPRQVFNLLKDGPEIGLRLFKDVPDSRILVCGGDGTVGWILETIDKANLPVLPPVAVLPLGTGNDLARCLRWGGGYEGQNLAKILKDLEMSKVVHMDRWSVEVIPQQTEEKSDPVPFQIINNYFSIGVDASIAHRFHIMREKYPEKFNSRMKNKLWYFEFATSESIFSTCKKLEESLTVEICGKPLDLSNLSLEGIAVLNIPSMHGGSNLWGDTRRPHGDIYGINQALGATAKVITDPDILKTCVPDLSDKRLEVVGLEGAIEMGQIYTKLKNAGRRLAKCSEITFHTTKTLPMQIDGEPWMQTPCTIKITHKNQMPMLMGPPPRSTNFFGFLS
pIC50: −log10 of the molar value.
VALUE_KIND: pIC50

Recorded results for 3 compounds are shown here.
COMPOUND	MEASURED_ON	OBS_VALUE
CC[C@@H]1C[C@H](Oc2ccc(OC(F)(F)F)cc2)CCN1c1nc(=O)n(C)c2ccc(C#N)nc12	DGKa (Homo sapiens (Human), UniProt P23743)	6.03
CC[C@@H]1CN(c2nc3nncn3c3ccc(C#N)nc23)[C@@H](CC)CN1C(=O)Cc1ccc(C(F)(F)F)cc1	DGKa (Homo sapiens (Human), UniProt P23743)	7.74
CC[C@H]1CN([C@H](c2ccc(S(F)(F)(F)(F)F)cc2)C2CC2)[C@H](CC)CN1c1nc(=O)n(C)c2ccc(C#N)nc12 (stereo in doubt)	DGKa (Homo sapiens (Human), UniProt P23743)	7.74

I = CC[C@H]1CN([C@@H](CC)c2ccc(S(F)(F)(F)(F)F)cc2)[C@H](CC)CN1c1nc(=O)n2c3c(cc(C#N)nc13)OCC2 (stereo in doubt)
II = CC[C@@H]1C[C@@]2(CCN1c1nc(=O)n(C)c3ccc(C#N)nc13)CC(c1ccc(OC(F)(F)F)cc1)=NO2 (single isomer, unassigned)
III = CC[C@H]1CN([C@H](c2ccc(SC(F)(F)F)cc2)c2nc(C3CC3)no2)[C@H](CC)CN1c1nc(=O)n(C)c2ccc(C#N)nc12 (stereo in doubt)
Returns the items ordered by pIC50, from maximum to minimum. Please reply with the labels ordered as requested. Many thanks.
III, I, II
(III: 8.52, I: 7.64, II: 6.60)

====

target: DGKa (Homo sapiens (Human), UniProt P23743); assay: biochemical;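 also: biochemical DGK kinase assay, ADP-Glo luminescence from ADP made by phosphorylating 1,2-dioleoyl-sn-glycerol, 20 min compound preincubation then 40 min reaction at 25 °C, 1% DMSO control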
VALUE_KIND: IC50 (nM)

Recorded results for 10 compounds are shown here.
COMPOUND	MEASURED_ON	IC50 / nM
CC[C@@H]1CN2c3c(c(=O)n(C)c4ccc(C#N)nc34)OC[C@@H]2CN1[C@@H](CC)c1ccc(C(F)(F)F)cc1 [Compound 67]	DGKa (Homo sapiens (Human), UniProt P23743)	4
CC[C@H]1CN([C@H](CC)c2ccc(S(F)(F)(F)(F)F)cc2)[C@H](CC)CN1c1nc2nncn2c2ccc(C#N)nc12 [Compound 87]	DGKa (Homo sapiens (Human), UniProt P23743)	2
CC[C@@H]1CN(c2nc3nncn3c3ccc(C#N)nc23)[C@@H](C)CN1[C@H](CC)c1ccc(SC(F)(F)F)cc1 (stereo in doubt) [Compound 71]	DGKa (Homo sapiens (Human), UniProt P23743)	21
CC[C@@H]1C[C@H](c2nc3cc(C)ccc3o2)CCN1c1nc(=O)n(C)c2cc(O[C@@H]3CCOC3)c(Cl)cc12 [Compound 92]	DGKa (Homo sapiens (Human), UniProt P23743)	227
CC[C@H]1CN([C@H](c2ccc(SC(F)(F)F)cc2)c2nc(C3CC3)cs2)[C@H](CC)CN1c1nc(=O)n(C)c2ccc(C#N)nc12 [Compound 57]	DGKa (Homo sapiens (Human), UniProt P23743)	24
CC[C@H]1CN([C@@H](C)c2ccc(S(F)(F)(F)(F)F)cc2)[C@H](CC)CN1c1nc(=O)n(C)c2ccc(C#N)nc12 (stereo in doubt) [Compound 62]	DGKa (Homo sapiens (Human), UniProt P23743)	35
CC[C@H]1CN([C@H](C)c2ccc(S(F)(F)(F)(F)F)cc2)[C@H](CC)CN1c1nc2nncn2c2ccc(C#N)nc12 (stereo in doubt) [Compound 89]	DGKa (Homo sapiens (Human), UniProt P23743)	10
CC[C@@H]1CN2c3c(c(=O)n(C)c4ccc(C#N)nc34)OC[C@@H]2CN1[C@@H](CC)c1ccc(SC(F)(F)F)cc1 [Compound 123]	DGKa (Homo sapiens (Human), UniProt P23743)	78
CC[C@@H]1CN(c2nc(=O)n(C)c3ccc(C#N)nc23)[C@@H](C)CN1[C@H](c1ccc(F)cc1)c1ccc(SC(F)(F)F)cn1 [Compound 73]	DGKa (Homo sapiens (Human), UniProt P23743)	15
N#Cc1cc2c3c(n1)c(N1CCC4(CC1)CC(c1ccc(OC(F)(F)F)cc1)=NO4)nc(=O)n3CCO2 [Compound 59]	DGKa (Homo sapiens (Human), UniProt P23743)	28

a = CC[C@H]1CN([C@@H](CC)c2ccc(OC(F)(F)F)cc2)[C@H](CC)CN1c1nc2nncn2c2ccc(C#N)nc12 (single isomer, unassigned) [Compound 100]
b = CC[C@H]1CN([C@H](CC)c2ccc(OC(F)(F)F)cc2)[C@H](CC)CN1c1nc2nncn2c2ccc(C#N)nc12 (stereo in doubt) [Compound 101]
Returns: the label, a or b , whose recorded IC50 is the lower number. Mark your selection by writing its label.
a
(a: 1 nM, b: 11 nM)

P = CC[C@H]1CN([C@H]2CCCCc3cc(C(F)(F)F)ccc32)[C@H](CC)CN1c1nc(=O)n(C)c2ccc(C#N)nc12 [Compound 44]
Q = CC[C@H]1CN([C@H](CC)c2cccc(S(F)(F)(F)(F)F)c2)[C@H](CC)CN1c1nc(=O)n(C)c2ccc(C#N)nc12 (stereo in doubt) [Compound 56]
Returns: the label, P or Q , whose recorded IC50 is the lower number. Mark your selection by writing its label.
P
(P: 40 nM, Q: 415 nM)

A = CC[C@H]1CN([C@@H](C)c2ccc(SC(F)(F)F)cc2)[C@H](CC)CN1c1nc2nncn2c2ccc(C#N)nc12 (stereo in doubt) [Compound 51]
B = Cc1ccc2oc(C3CCN(c4nc(=O)n(C)c5cc(O[C@@H]6CCOC6)c(Cl)cc45)CC3)nc2c1 [Compound 32]
From the recorded data, which exceeds the other in IC50: A or B ? Mark your selection by writing its label.
A
(A: 58 nM, B: 9 nM)

P = CC[C@@H]1C[C@H](c2nc3cc(C)ccc3o2)CCN1c1nc(=O)n(C)c2cc(O[C@H]3CCOC3)c(Cl)cc12 [Compound 91]
Q = Cc1ccc2oc(C3CCN(c4nc(=O)n(C)c5cc(O[C@H]6CCOC6)c(Cl)cc45)CC3)nc2c1 [Compound 33]
R = CC[C@H]1C[C@@H](c2nc3cc(C)ccc3o2)CCN1c1nc(=O)n(C)c2cc(O[C@H]3CCOC3)c(Cl)cc12 (stereo in doubt) [Compound 93]
S = CC[C@@H]1CN(c2nc3nncn3c3ccc(C#N)nc23)[C@@H](C)CN1[C@@H](CC)c1ccc(SC(F)(F)F)cc1 (stereo in doubt) [Compound 66]
T = CC[C@H]1CN([C@H](CC)c2ccc(S(F)(F)(F)(F)F)cc2)[C@H](CC)CN1c1nc(=O)n2c3c(cc(C#N)nc13)OCC2 (stereo in doubt) [Compound 79]
Returns the items ordered by IC50, from maximum to minimum. Please reply with the labels ordered as requested. Many thanks.
T, P, R, S, Q
(T: 111 nM, P: 29 nM, R: 12 nM, S: 4 nM, Q: 2 nM)

====

Recorded pEC50 values for a group of molecules are listed next.
tested on: PBMC; assay: Human PBMC IL-2 assay; assay type: cell-based; conditions: anti-CD3/CD28 stimulation overnight, IL-2 level
Interpret pEC50 as the negative base-10 log of the concentration measured in mol/L.

Recorded results for 3 molecules are shown here.
MOLECULE	pEC50
CC[C@@H]1CN2c3c(c(=O)n(C)c4ccc(C#N)nc34)OC[C@@H]2CN1[C@@H](CC)c1ccc(F)c(C)c1 (stereo in doubt)	7.80
CC[C@H]1CN([C@H](c2ccc(SC(F)(F)F)cc2)C2CC2)[C@H](CC)CN1c1nc2nncn2c2ccc(C#N)nc12 (stereo in doubt)	7.49
C[C@@H]1CN2c3c(c(=O)n(C)c4ccc(C#N)nc34)OC[C@@H]2CN1[C@@H](C)c1ccc(Cl)cc1Cl (stereo in doubt)	6.05

pEC50 for CC[C@H]1CN([C@@H](CC)c2ccc(F)cc2F)[C@H](CC)CN1c1nc2nncn2c2ccc(C#N)nc12 (stereo in doubt) ?
7.10

Cool, now `CC[C@@H]1CN2c3c(c(=O)n(C)c4ccc(C#N)nc34)OC[C@@H]2CN1[C@@H](CC)c1ncc(C(F)(F)F)cn1`
7.80

Cool, now C[C@@H]1CN2c3c(c(=O)n(C)c4ccc(C#N)nc34)OC[C@@H]2CN1[C@@H](C)c1ccc(Cl)cc1 (stereo in doubt)
7.24

====

target: DGKz (Homo sapiens (Human), UniProt Q13574)
Sequence (Q13574 whole entry): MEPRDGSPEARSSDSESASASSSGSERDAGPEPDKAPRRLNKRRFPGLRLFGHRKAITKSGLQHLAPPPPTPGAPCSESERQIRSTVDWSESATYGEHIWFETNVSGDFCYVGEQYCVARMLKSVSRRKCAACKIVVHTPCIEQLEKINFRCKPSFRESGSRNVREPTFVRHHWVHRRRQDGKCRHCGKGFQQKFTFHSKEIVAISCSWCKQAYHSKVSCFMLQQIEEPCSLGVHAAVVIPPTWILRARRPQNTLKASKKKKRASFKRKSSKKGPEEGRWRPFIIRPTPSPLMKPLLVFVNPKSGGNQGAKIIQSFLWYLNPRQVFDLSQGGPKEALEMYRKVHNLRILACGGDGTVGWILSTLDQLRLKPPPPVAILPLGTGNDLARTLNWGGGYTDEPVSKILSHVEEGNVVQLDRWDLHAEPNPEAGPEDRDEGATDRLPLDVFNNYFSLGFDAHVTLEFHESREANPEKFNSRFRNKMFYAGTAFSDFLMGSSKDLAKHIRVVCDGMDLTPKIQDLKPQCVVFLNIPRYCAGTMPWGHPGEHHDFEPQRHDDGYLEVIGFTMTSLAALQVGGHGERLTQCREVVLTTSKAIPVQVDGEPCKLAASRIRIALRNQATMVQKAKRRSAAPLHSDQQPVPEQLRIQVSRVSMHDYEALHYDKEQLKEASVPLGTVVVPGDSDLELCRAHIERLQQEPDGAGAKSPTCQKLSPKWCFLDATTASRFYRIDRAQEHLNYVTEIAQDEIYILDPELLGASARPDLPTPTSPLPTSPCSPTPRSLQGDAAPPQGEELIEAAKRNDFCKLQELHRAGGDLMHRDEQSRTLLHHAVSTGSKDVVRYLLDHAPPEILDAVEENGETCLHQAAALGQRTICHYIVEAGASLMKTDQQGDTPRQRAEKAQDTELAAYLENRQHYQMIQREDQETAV
VALUE_KIND: IC50 (nM)

Recorded results for 7 compounds are shown here.
COMPOUND	IC50 [nM]
CC[C@H]1CN(C(COC)c2ccc(S(F)(F)(F)(F)F)cc2)[C@H](CC)CN1c1nc(=O)n(C)c2ccc(C#N)nc12 (stereo partly shown) [Compound 78]	41
CC[C@@H]1CN(c2nc(=O)n(C)c3ccc(C#N)nc23)[C@@H](C)CN1[C@H](c1ccc(F)cc1)c1ccc(SC(F)(F)F)cn1 [Compound 73]	58
Cn1c(=O)nc(N2CCC3(CC2)CC(c2cccc(C(F)(F)F)c2)=NO3)c2nc(C#N)ccc21 [Compound 47]	36
Cn1c(=O)nc(N2CCC(Oc3ccc(OC(F)(F)F)cc3)CC2)c2nc(C#N)ccc21 [Compound 5]	126
Cc1ccc2oc(C3CCN(c4nc(=O)n(C)c5ccc(C#N)nc45)CC3)nc2c1 [Compound 20]	1840
CC[C@@H]1CN(c2nc(=O)n(C)c3ccc(C#N)nc23)[C@@H](C)CN1C(c1ccc(S(F)(F)(F)(F)F)cc1)c1nc(C2CC2)no1 (stereo partly shown) [Compound 65]	59
CC[C@H]1CN([C@@H](CC)c2ccc(C(F)(F)F)cc2)[C@H](CC)CN1c1nc2nncn2c2ccc(C#N)nc12 [Compound 34]	42

A = CC[C@H]1CN([C@@H](CC)c2ccc(S(F)(F)(F)(F)F)cc2)[C@H](CC)CN1c1nc(=O)n(C)c2ccc(C#N)nc12 [Compound 28]
B = CC[C@H]1CN([C@@H](c2ccc(SC(F)(F)F)cc2)c2nc(C3CC3)cs2)[C@H](CC)CN1c1nc(=O)n(C)c2ccc(C#N)nc12 [Compound 58]
C = CC[C@H]1CN([C@@H](c2ccc(S(F)(F)(F)(F)F)cc2)c2nc(C3CC3)cs2)[C@H](CC)CN1c1nc(=O)n(C)c2ccc(C#N)nc12 [Compound 99]
D = CC[C@@H]1CN2c3c(c(=O)n(C)c4ccc(C#N)nc34)OC[C@@H]2CN1[C@@H](CC)c1ccc(SC(F)(F)F)cc1 [Compound 123]
E = CC[C@H]1C[C@]2(CCN1c1nc(=O)n(C)c3ccc(C#N)nc13)CC(c1ccc(OC(F)(F)F)cc1)=NO2 (single isomer, unassigned) [Compound 74]
Returns the items ordered by IC50, from maximum to minimum. Please reply with the labels ordered as requested. Many thanks.
E, D, B, A, C
